- assay_notes: qHTS Validation assay for Inhibitors of Plasmodium falciparum Dd2 growth in vitro; also: nearly all actives have a fitted effect of over 70% in size
- measurement_parameters: P. falciparum Dd2 in RBCs, SYBR Green growth, 72 h; series mostly up to 28.7 µM
In all, about 4,100 compounds went through this assay and about 1,600 (39%) were called active. Inconclusive results (about 25%) are left out. Some of the results follow.
measure_name: Potency

Recorded Potency, per entry:
>>> result_value("COc1ccc(C(=O)NCc2nc(-c3cccc(C)c3)no2)cc1OC")
"inactive"
>>> result_value("Cc1noc([C@@H]2CN(C(=O)c3cccc(C(F)(F)F)c3)C[C@H]2C(N)=O)n1")
"inactive"
>>> result_value("CN(C)c1ccc(CN2CCC3(C2)C(=NC2CCCCC2)NC(=O)N3c2cccnc2)cc1 (stereo not given)")
"inactive"
>>> result_value("CCC1(O)CCCN(c2ncc(C(C)(C)C(=O)O)c(N3CCOCC3)n2)C1 (stereo not given)")
"inactive"

// below: Potency requested for another compound
# input Bench note: what Potency did CN(CC1CCOC1)C(=O)Nc1ccc(Br)cc1 (stereo not given) show?
# output inactive
